Source of measurements: PubChem BioAssay AID1159580

- Measurement notes: chemical genetic growth profiling, strain panel (AID 1159580);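 also: tested at 20 µM; growth read once vehicle control cultures reached saturation at 30 °C; lower values mean less growth of the strain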
- Condition info: S. cerevisiae deletion strains, growth OD, locus YIR030C, strain dcg1
Screen size: about 5,500 compounds; about 2,000 (36%) were called active. Not shown: some 18% with an inconclusive outcome. Rule as the data show it: active = normalized growth mostly below about 0.91 (no sharp cut-off); inconclusive = no clear call, values can overlap the other calls; inactive = mostly above about 0.92. This is one part of the list.
Outcome codes: active, inactive

{"Compound": "CC(C)=CCCC1(C)C=Cc2c(O)c3c(c(CC=C(C)C)c2O1)OC12C(=CC4CC1C(C)(C)OC2(C/C=C(/C)C(=O)O)C4=O)C3=O (stereo unspecified)", "Cat": "inactive"}
{"Compound": "C[C@]12CCC(=O)C=C1CCC1C2[C@@H](O)C[C@@]2(C)C1CC[C@]2(O)C(=O)CO (stereo partly specified)", "Cat": "inactive"}
{"Compound": "CC1=CCC2C3(C)C1=CC(=O)OC3CC1C(C)(C)CC(O)C(O)C12C (stereo unspecified)", "Cat": "inactive"}
{"Compound": "CC(C)=CCCC1(C)C=Cc2c(O)c3c(c(CC=C(C)C)c2O1)OC12C(=CC4CC1C(C)(C)OC2(C/C=C(\\C)C(N)=O)C4=O)C3=O (stereo unspecified)", "Cat": "inactive"}
{"Compound": "CCCCCCCCCCCC[C@H](C(=O)O)[C@@H](C)C(=O)O", "Cat": "inactive"}
{"Compound": "COC(=O)/C(C)=C\\CC12OC(C)(C)C3CC(C=C4C(=O)c5c(O)c6c(c(CCC(C)(C)Cl)c5OC431)OC1(C)CCC(=C(C)C)C6C1)C2=O (stereo unspecified)", "Cat": "inactive"}
{"Compound": "CC(C)CC(N(C)C)C1(c2ccc(Cl)cc2)CCC1 (stereo unspecified)", "Cat": "inactive"}
{"Compound": "Cc1cc(C(C)(C)C)c(O)c(C(C)(C)C)c1", "Cat": "inactive"}
{"Compound": "N=C(N)c1ccc(OCCCCCOc2ccc(C(=N)N)cc2)cc1", "Cat": "inactive"}
{"Compound": "Nc1c2ccccc2nc2ccccc12 (tested in a mixture with another compound)", "Cat": "active"}
{"Compound": "C#C[C@]1(O)CCC2C3CCC4=C(CCC(=O)C4)C3CC[C@@]21C (stereo partly specified)", "Cat": "inactive"}
{"Compound": "CC(=O)Nc1ccc(OCC(O)CNC(C)C)cc1 (stereo unspecified)", "Cat": "inactive"}
{"Compound": "NC(N)=N/N=C/c1c(Cl)cccc1Cl", "Cat": "inactive"}
{"Compound": "CCOP(=S)(OCC)Oc1nc(Cl)c(Cl)cc1Cl", "Cat": "inactive"}
{"Compound": "Nc1c2c(nc3ccccc13)CCCC2", "Cat": "inactive"}
{"Compound": "C/C=C1\\[C@H]2C=C(C)C[C@]1(N)c1ccc(=O)[nH]c1C2", "Cat": "inactive"}
{"Compound": "Cc1ccc(-c2cc(C(F)(F)F)nn2-c2ccc(S(N)(=O)=O)cc2)cc1", "Cat": "inactive"}
{"Compound": "NNc1nncc2ccccc12", "Cat": "inactive"}
{"Compound": "Nc1ccccc1C(=O)CC(N)C(=O)O (stereo unspecified)", "Cat": "inactive"}
{"Compound": "CCOP(=S)(OCC)Oc1cc(C)nc(C(C)C)n1", "Cat": "inactive"}
{"Compound": "CC(=O)NCc1c(I)c(NC(C)=O)c(I)c(C(=O)O)c1I", "Cat": "inactive"}
